Assay: Metabolic stability in rat liver microsomes assessed as intrinsic clearance
Assay type: ADME, Microsome
Details: read-out: CLH
experimental.readout: microsomal CLint (µL/min/mg)

See these solved cases before continuing.
Write down microsomal CLint measured for item `Cc1cc(Nc2nc(Nc3ccccc3S(=O)(=O)C(C)C)c3cn[nH]c3n2)c(OC(C)C)cc1C1CCN(C)CC1` 30

Write down microsomal CLint measured for item `Cc1cc(Nc2nc(Nc3ccccc3S(=O)(=O)C(C)C)c3cc[nH]c3n2)c(OC(C)C)cc1C1CCN(C)CC1` 34

P = Cc1cc(Nc2nc(Nc3ccccc3S(=O)(=O)C(C)C)c3c(C)[nH]nc3n2)c(OC(C)C)cc1C1CCN(C)CC1
Q = Cc1cc(Nc2nc(Nc3ccccc3S(=O)(=O)C(C)C)c3cc[nH]c3n2)c(OC(C)C)cc1C1CCNCC1
Hi team, can someone confirm which has the larger microsomal CLint: P or Q ? Thanks. Give the label under which the chosen entry appears. P
